target: Folate receptor beta (Mus musculus); experiment: Binding affinity to Folate receptor beta in mouse RAW264.7 cells assessed as dissociation constant
Sequence (Q05685 whole entry): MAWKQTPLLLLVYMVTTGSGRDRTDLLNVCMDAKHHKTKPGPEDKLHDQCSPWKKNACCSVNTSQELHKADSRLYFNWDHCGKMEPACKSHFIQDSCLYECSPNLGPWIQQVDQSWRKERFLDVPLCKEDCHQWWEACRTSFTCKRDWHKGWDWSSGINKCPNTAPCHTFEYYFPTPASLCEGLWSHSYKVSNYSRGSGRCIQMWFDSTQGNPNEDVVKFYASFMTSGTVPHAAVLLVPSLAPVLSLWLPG
# label = label 1 if Kd < 50 nM else label 0

query: Strictly below 50 nM in Kd? CC1(C)C(/C=C/C2=C(Oc3ccc(C[C@H](NC(=O)c4ccc(CCCCc5cc6c(=O)[nH]c(N)nc6[nH]5)cc4)C(=O)O)cc3)C(=C/C=C3/N(CCCCS(=O)(=O)O)c4ccccc4C3(C)C)/CCC2)=[N+](CCCCS(=O)(=O)[O-])c2ccccc21
result: label 1

query: Strictly below 50 nM in Kd? CC1(C)C(/C=C/C2=C(SC[C@@H](NC(=O)CC[C@H](NC(=O)CNC(=O)Cc3cc4c(=O)[nH]c(N)nc4[nH]3)C(=O)O)C(=O)O)C(=C/C=C3/N(CCCCS(=O)(=O)O)c4ccccc4C3(C)C)/CCC2)=[N+](CCCCS(=O)(=O)[O-])c2ccccc21
result: label 1

query: Strictly below 50 nM in Kd? CC1(C)C(/C=C/C2=C(Oc3ccc(C[C@H](NC(=O)c4ccc(NCc5cnc6nc(N)[nH]c(=O)c6n5)cc4)C(=O)O)cc3)C(=C/C=C3/N(CCCCS(=O)(=O)O)c4ccccc4C3(C)C)/CCC2)=[N+](CCCCS(=O)(=O)[O-])c2ccccc21
result: label 1

query: Strictly below 50 nM in Kd? CC1(C)C(/C=C/C2=C(Oc3ccc(C[C@H](NC(=O)CNC(=O)Cc4cc5c(=O)[nH]c(N)nc5[nH]4)C(=O)O)cc3)C(=C/C=C3/N(CCCCS(=O)(=O)O)c4ccccc4C3(C)C)/CCC2)=[N+](CCCCS(=O)(=O)[O-])c2ccccc21
result: label 1

query: Strictly below 50 nM in Kd? CC1(C)C(/C=C/C2=C(Oc3ccc(C[C@H](NC(=O)c4ccc(CCCCc5cc6c(=O)[nH]c(N)nc6[nH]5)s4)C(=O)O)cc3)C(=C/C=C3/N(CCCCS(=O)(=O)O)c4ccccc4C3(C)C)/CCC2)=[N+](CCCCS(=O)(=O)[O-])c2ccccc21
result: label 1

query: Strictly below 50 nM in Kd? CC1(C)C(/C=C/C2=C(SC[C@H](NC(=O)CNC(=O)Cc3cc4c(=O)[nH]c(N)nc4[nH]3)C(=O)O)C(=C/C=C3/N(CCCCS(=O)(=O)O)c4ccccc4C3(C)C)/CCC2)=[N+](CCCCS(=O)(=O)[O-])c2ccccc21
result: label 0

Ref: ChEMBL document CHEMBL5634159
